assay: binders of probe aFGF2 on microarray, primary screen, stem cell growth factor project, biochemical, small-molecule microarray, fluorescence 635/667 (AID 1067); details: higher = more signal;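 note: measures binding of biotinylated aFGF2 protein to printed compounds on slides; z-score merges feature fluorescence and signal-to-noise across triplicate slides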
recorded endpoint: composite z-score
Answer field: number only, no words.

Query string: Look up and report measured composite z-score for this entry: COC(=O)[C@@]1(Cc2ccccc2CN=[N+]=[N-])N=C(c2ccc(OCCCO)cc2)O[C@H]1c1ccccc1CN=[N+]=[N-]
Result string: -0.0457

Query string: Please supply the value of reported composite z-score for the item CC(C)[C@H]1NC(=O)[C@@]23C(=O)N[C@@H](Cc4ccccc4)C2[C@H](C)[C@@]2(C)O[C@H]2C3/C=C/C/C=C\CNC(=O)[C@H](Cc2ccccc2)NC1=O (stereo partly drawn)
Result string: -0.0462

Query string: Tell us which composite z-score value is on record for [N-]=[N+]=NCc1ccccc1C[C@@]1(C(=O)N2CCCCC2)N=C(c2ccc(OCCCO)cc2)O[C@@H]1c1ccccc1CN=[N+]=[N-]
Result string: 0.0234

###

test: A549 lung cancer cell viability effects, profiling panel, resazurin fluorescence, 24 h, PK04 Diversity Set (AID 1171); conditions: higher = more signal, called active from +8 up or from −8 down; note: test concentration not given here
# label = Y if z-score >= -0.09 else N

Query string: Is reported z-score greater than or equal to -0.09 here: O=C1O[C@H](c2ccccc2)[C@H](c2ccccc2)N2[C@H]1[C@@H](C(=O)N1CCCCCCC1)[C@]1(C(=O)Nc3ccc(C#CC4(O)CCCCCC4)cc31)[C@H]2c1ccccc1OCCO
Result string: N

Query string: Item CC1CC/C=C\[C@H]2OC34C=CCN(C(C)(C)C)C(=O)[C@H]3N(C(CO)C(C)C)C(=O)[C@@H]4C2C(=O)O1 (some centres not stated) with z-score of -0.09 or above?
Result string: N

Query string: Hi, just wondering whether CC(=O)NCCCC[C@@H]1NC(=O)[C@@H]2C[C@H](C(=O)NCCCCCCN)[C@H](c3cccc(OCCO)c3)N2C1=O shows z-score of -0.09 or higher.
Result string: N

Query string: Kindly determine if z-score recorded for CCCNC(=O)[C@@]1(C)c2ccccc2C(=O)N(Cc2ccccc2)[C@H]1c1ccc(CO)cc1 is above or exactly -0.09.
Result string: Y

Query string: Please indicate if the recorded z-score for C=CCNC(=O)[C@@H]1[C@H]2C(=O)O[C@H](c3ccccc3)[C@H](c3ccccc3)N2[C@H](c2ccc(OCCO)cc2)[C@@]12C(=O)N(C(=O)OCCOC)c1ccc(C#CCCO)cc12 meets or exceeds -0.09.
Result string: N

Query string: # check: z-score of CN(C)C(=O)[C@@]1(CCC(=O)OC(C)(C)C)N=C(c2ccc(OCCCO)cc2)O[C@H]1c1ccccc1CN=[N+]=[N-] is greater than or equal to -0.09
Result string: Y

Query string: // inclusive: z-score at least -0.09? input: CCCNC(=O)[C@@]1(Sc2ccc(C)cc2)CC(=O)N(C(C)C)[C@@H]1c1ccc(CO)cc1I
Result string: Y

###

tested on: Sonic hedgehog protein (Shh); experiment: small-molecule binders of Shh protein, primary screen, biochemical, small-molecule microarray, 635/667 nm fluorescence (AID 1151); conditions: small-molecule microarray binding, 635 nm fluorescence; higher = more signal;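 note: Shh protein binding to compounds spotted on small-molecule microarray slides; score combines spot fluorescence intensity with signal-to-noise across triplicate slides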
Range-based classes on measured composite z-score: group 1 = under -0.08, group 2 = from -0.08 up to 1, group 3 = 1 and over

Query string: Which of the defined bands does the recorded composite z-score of COC(=O)[C@@]1(Cc2ccc(OC)cc2)[C@H]2c3cc(C(=O)N4CCCC4)n(Cc4cc(C)n(C)n4)c3C[C@H]2CN1C(=O)c1ccccc1 sit within?
Result string: group 1

Query string: Using the reported composite z-score, which band applies to CCCNC(=O)[C@@]1(Sc2ccc(C)cc2)CC(=O)N(C(C)C)[C@@H]1c1ccc(CO)cc1I ?
Result string: group 1

Query string: Which bin should I file C=C(COC)C(=O)CC[C@H](OC(=O)c1cccnc1)c1ccc(CO)o1 under?
Result string: group 3

Query string: Note: place this compound into its band. Item: [N-]=[N+]=Nc1ccccc1C[C@]1(C(=O)O)N=C(c2ccc(OCCCO)cc2)O[C@H]1c1ccccc1N=[N+]=[N-]
Result string: group 2

Query string: Please classify: COCCOC(=O)N1C(=O)[C@@]2(c3cc(C#CCC(C(=O)OC)C(=O)OC)ccc31)[C@H](c1ccc(OCCO)cc1)N1[C@H](c3ccccc3)[C@H](c3ccccc3)OC(=O)[C@H]1[C@@H]2C(=O)Nc1nc2ccccc2s1
Result string: group 3

Query string: Hello team, could you let me know which band the following compound falls into: CC(C)c1ccc(NN2C(C(O)Cc3ccccc3)C=CC3C(=O)N(c4ccccc4)C(=O)C32)cc1 (centres undefined)
Result string: group 1

Query string: Determine which band this compound sits in: COCCOC(=O)N1C(=O)[C@@]2(c3cc(C#Cc4ccc(OC)cc4)ccc31)[C@H](C(=O)NC[C@H](O)c1ccccc1)[C@H]1C(=O)O[C@H](c3ccccc3)[C@H](c3ccccc3)N1[C@@H]2c1ccc(OCCO)cc1
Result string: group 3

Query string: Exam item: assign COc1ccc(CCNC(=O)[C@@]2(Cc3ccccc3I)c3ccccc3C(=O)N(Cc3ccccc3Cl)[C@H]2c2ccc(CO)cc2)cc1 to the correct category.
Result string: group 2

Query string: # bin label for C=CCC(OC(C)=O)[C@@H]1[C@@H](N(Cc2ccc(-c3cccc(C(F)(F)F)c3)o2)C(=O)Cc2ccc(OC)cc2)c2cc(OCCCO)ccc2N1C(=O)Cc1ccc2ccccc2c1 (some centres undefined)
Result string: group 2

Query string: Could you tell me which band CC(C)C[C@@H]1NC(=O)[C@H]2C[C@@H](C(=O)NCCCCCN)[C@@H](c3cccc(OCCO)c3)N2C1=O belongs to?
Result string: group 1

Query string: Class (by measured composite z-score) for CCOC(=O)C[C@H]1[C@H](OC(=O)c2ccccc2-c2ccccc2)[C@@H](NC(=O)c2ccccc2)c2cc(OCCCO)ccc2N1C(=O)c1ccccc1
Result string: group 2

Query string: Could you tell me which band COc1cc2c(cc1O)C(c1ccc(CN3CCCC3)cc1)N(C)CC2 (centres undefined) belongs to?
Result string: group 1

Query string: Class label required: CO[C@H]1O[C@H](CO)[C@@H](OC(=O)Nc2ccc(C#N)cc2)[C@@H]2OC(=O)[C@H](Cc3cccc(Br)c3)C/C=C/C[C@@H](Cc3cccc(Br)c3)C(=O)O[C@@H]12
Result string: group 3

Query string: Tag the class for CN1C(=O)[C@@]2(Cc3ccccc3)N=C(c3ccc(OCCCO)cc3)O[C@H]2c2ccccc21
Result string: group 3
